System: intracellular amastigotes of T. cruzi
assay_summary: Activity against intracellular amastigotes in infected Vero cells (Dm28c-Luc, 72 h)
Type: cell-based, Trypanosoma cruzi
measurement_setup: CC50 of Vero cells/IC50 of intracellular amastigote
Here the recorded Intracellular Amastigotes SI is given for each entry.

Would you please look over these solved cases?
{"columns": ["molecule", "system_under_test", "endpoint_label", "value_reported"],
 "data": [
  ["c1ccc(-n2cc(C3=NCCN3)cn2)cc1 [Compound 3a]", "intracellular amastigotes of T. cruzi", "Intracellular Amastigotes SI", ">5.44"],
  ["Clc1ccc(-n2cc(C3=NCCN3)cn2)c(Cl)c1 [Compound 3c]", "intracellular amastigotes of T. cruzi", "Intracellular Amastigotes SI", 7.21],
  ["Clc1cc(Cl)cc(-n2cc(C3=NCCN3)cn2)c1 [Compound 3d]", "intracellular amastigotes of T. cruzi", "Intracellular Amastigotes SI", 6.99]
]}

Could you now consider this next molecule?
Prompt: Intracellular Amastigotes SI lookup needed for Clc1cccc(Cl)c1-n1cc(C2=NCCN2)cn1 [Compound 3f] , thanks.
Response: >6
